Target: human ether-à-go-go-related gene (hERG) potassium channel (human);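 further: peak tail current of the secondary pulse compared with the same well before compound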
Sequence (Q12809 whole entry, looked up): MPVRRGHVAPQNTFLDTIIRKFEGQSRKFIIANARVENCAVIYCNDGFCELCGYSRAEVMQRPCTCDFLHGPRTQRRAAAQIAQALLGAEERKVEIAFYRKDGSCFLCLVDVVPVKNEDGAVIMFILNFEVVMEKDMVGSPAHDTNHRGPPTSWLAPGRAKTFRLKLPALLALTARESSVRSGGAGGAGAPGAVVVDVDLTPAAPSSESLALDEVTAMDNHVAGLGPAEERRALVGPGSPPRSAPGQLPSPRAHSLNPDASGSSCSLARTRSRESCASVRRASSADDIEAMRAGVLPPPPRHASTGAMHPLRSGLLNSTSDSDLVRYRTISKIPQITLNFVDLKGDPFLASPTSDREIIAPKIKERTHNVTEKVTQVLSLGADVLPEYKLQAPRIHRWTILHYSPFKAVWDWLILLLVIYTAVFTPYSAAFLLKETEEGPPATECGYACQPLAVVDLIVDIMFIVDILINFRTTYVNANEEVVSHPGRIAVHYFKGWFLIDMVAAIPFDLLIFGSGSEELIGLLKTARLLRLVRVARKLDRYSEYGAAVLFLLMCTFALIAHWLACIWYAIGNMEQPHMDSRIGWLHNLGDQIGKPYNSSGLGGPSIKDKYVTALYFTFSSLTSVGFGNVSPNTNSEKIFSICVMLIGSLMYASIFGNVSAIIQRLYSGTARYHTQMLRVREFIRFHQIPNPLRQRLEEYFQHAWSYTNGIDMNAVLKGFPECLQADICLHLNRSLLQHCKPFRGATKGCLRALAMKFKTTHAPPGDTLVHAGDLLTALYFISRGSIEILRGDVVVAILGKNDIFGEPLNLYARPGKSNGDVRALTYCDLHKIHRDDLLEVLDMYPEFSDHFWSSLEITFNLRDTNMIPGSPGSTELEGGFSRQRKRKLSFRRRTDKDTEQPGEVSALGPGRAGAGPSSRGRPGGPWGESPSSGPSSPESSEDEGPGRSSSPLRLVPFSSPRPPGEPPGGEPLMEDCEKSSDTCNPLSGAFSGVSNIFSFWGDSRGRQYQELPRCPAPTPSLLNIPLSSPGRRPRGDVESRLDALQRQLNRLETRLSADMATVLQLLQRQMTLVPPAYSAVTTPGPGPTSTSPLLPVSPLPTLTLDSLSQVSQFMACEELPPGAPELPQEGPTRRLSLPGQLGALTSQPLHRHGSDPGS
Test: primary screen, population patch clamp on CHO cells stably expressing hERG; higher = less effect of the substance
Hit rate of the full screen: of about 310,000 compounds, about 14,000 (4.5%) showed an effect of 50% or more. The effect is printed as a negative number. This is one part of a sample in which strong results are shown more often than they occur.
Quantity measured: hERG current change (%, negative = inhibition) at 10uM (%)
Dear colleague, please return just the value in %, with no unit written.

Please fill in: hERG current change (%, negative = inhibition) at 10uM reported for CCCCOP(=O)(c1ccc(N(C)C)cc1)C(O)c1ccc(C(C)C)cc1 (stereo not drawn) = -13

Just so you know, measured hERG current change (%, negative = inhibition) at 10uM for COc1ccc(NC(=O)Cc2nnc(SCC(=O)NC3CCCC3)n2C)cc1 came out at 15.3

Documented hERG current change (%, negative = inhibition) at 10uM of O=C(O)C1CCCN(S(=O)(=O)c2cccs2)C1 (stereo not drawn) : 4.67

For reference, reported hERG current change (%, negative = inhibition) at 10uM for COC(=O)c1ccccc1N1CCS(=O)(=O)CC1 stands at 18.3

response.value for CCN(CC)c1ccc2cc(C(=O)NCc3ccc(F)cc3)c(=N)oc2c1 (field: hERG current change (%, negative = inhibition) at 10uM) = -23.4

Per the record, CCOC(=O)N1CCN(C(=O)C2CCCN(S(=O)(=O)c3ccc(OCC)cc3)C2)CC1 (stereo not drawn) has hERG current change (%, negative = inhibition) at 10uM of -46.2

hERG current change (%, negative = inhibition) at 10uM for COc1ccc(C(CC(=O)O)NC(C)=O)cc1OC (stereo not drawn) is 10.4

Lab note: COc1ccc(C(CNC(=O)COc2cc(C)ccc2Cl)N2CCCCC2)cc1 (stereo not drawn) gave hERG current change (%, negative = inhibition) at 10uM of 1.57

The measured hERG current change (%, negative = inhibition) at 10uM associated with CN(C(=O)CC1C(=O)NCCN1Cc1cccc(F)c1F)C1CC(C)(C)NC(C)(C)C1 (stereo not drawn) reads 26.1

What the record says about CCOc1ccc(S(=O)(=O)N2CCC(C(=O)N3CCN(c4ccccc4)CC3)CC2)cc1 : hERG current change (%, negative = inhibition) at 10uM is -18

Sure, the documented hERG current change (%, negative = inhibition) at 10uM for CCOc1ccc(-n2c(-c3ccccc3)nnc2-c2ccccc2)cc1 is -6.7

hERG current change (%, negative = inhibition) at 10uM reading for CCCCCCc1cc2cc(C(=O)OCC)c(=O)oc2cc1O : 23.3

Recorded hERG current change (%, negative = inhibition) at 10uM (molecule CCn1ncc(S(=O)(=O)Nc2cccnc2)c1C ): 5.02

Just so you know, measured hERG current change (%, negative = inhibition) at 10uM for O=C1c2ccccc2C(Nc2ccc3c(c2)OCCO3)N1Cc1ccccc1 (stereo not drawn) came out at -18.2

Looking up COc1ccc(Cl)cc1NC(=O)CN1CCN(S(=O)(=O)N2CCC(C)CC2)CC1 , I see its hERG current change (%, negative = inhibition) at 10uM listed as -32.1

Looking up CC(=O)Nc1ccc(S(=O)(=O)N2CCCC(C(=O)O)C2)cc1 (stereo not drawn) , I see its hERG current change (%, negative = inhibition) at 10uM listed as -3.16

Quick note, hERG current change (%, negative = inhibition) at 10uM for CCOC(=O)CNC(=O)CSc1nnc(-c2cccc(C)c2)n1-c1ccc(OC)cc1 landed at -62

Memo: O=C(CN1CCN(S(=O)(=O)N2CCCCC2)CC1)Nc1cc(Cl)ccc1Cl , reported hERG current change (%, negative = inhibition) at 10uM: 10.7

# hERG current change (%, negative = inhibition) at 10uM of CN(C)c1ccc(NC(=O)CN2CCN(S(=O)(=O)c3cc(Cl)ccc3Cl)CC2)cc1 = -1.09

Record summary for N#Cc1ccccc1NC(=S)NC(=O)C1CCC1 : reported hERG current change (%, negative = inhibition) at 10uM = 9.95

molecule O=C1CC(NS(=O)(=O)c2cccs2)CN1c1cccc(F)c1 (stereo not drawn) , hERG current change (%, negative = inhibition) at 10uM observed: -6.29

Briefly, hERG current change (%, negative = inhibition) at 10uM measured for CCn1c(COc2ccccc2C)nnc1SCC(=O)OC : -9.68

Query CCCCCOC(=O)c1ccccc1C(=O)O yields hERG current change (%, negative = inhibition) at 10uM of 16.1

Memo: COc1ccc(Cl)cc1NC(=O)CN1CCN(S(=O)(=O)N2CCOCC2)CC1 , reported hERG current change (%, negative = inhibition) at 10uM: -55.9

* * *

Hi there, I'd appreciate the recorded hERG current change (%, negative = inhibition) at 10uM for every entry that follows.
Target: human ether-à-go-go-related gene (hERG) potassium channel (human);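 further: peak tail current of the secondary pulse compared with the same well before compound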
Test: primary screen, population patch clamp on CHO cells stably expressing hERG; higher = less effect of the substance
Out of some 310,000 compounds screened, about 14,000 (4.5%) showed an effect of 50% or more. Effects have a minus sign here. Many of the other results were omitted from the sample, so strong results are more common in it than they were.
State the value, then name its unit.

The reported hERG current change (%, negative = inhibition) at 10uM of the compound COc1ccc(N(CC(=O)NCCSCc2ccco2)S(=O)(=O)c2ccc(C)cc2)cc1 was -17.9%

Documented hERG current change (%, negative = inhibition) at 10uM of O=S(=O)(NCC(c1ccco1)N1CCN(c2ccccc2)CC1)c1ccc(F)cc1 (stereo not drawn) : 0.0547%

Form: compound = COc1ccc(OC)c(N(CC(=O)NCCSCc2ccco2)S(=O)(=O)c2ccc(OC)c(OC)c2)c1 ; hERG current change (%, negative = inhibition) at 10uM = -22.6%

* * *

Biological target: human ether-à-go-go-related gene (hERG) potassium channel (human);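 further: peak tail current of the secondary pulse compared with the same well before compound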
Experiment: primary screen, population patch clamp on CHO cells stably expressing hERG; higher = less effect of the substance
Screen size: about 310,000 compounds; about 14,000 (4.5%) showed an effect of 50% or more. Effects have a minus sign here. Many of the other results were omitted from the sample, so strong results are more common in it than they were.
Please go through the items and note down their hERG current change (%, negative = inhibition) at 10uM.
Write the answer as a number in %, unit excluded.

Short answer for COc1ccc(COC(=O)C2CCN(C(=O)c3ccc(Cl)cc3)CC2)cc1F : hERG current change (%, negative = inhibition) at 10uM was -52.2

For this compound ( COc1ccc(C)cc1NC(=O)Nc1ccc(C(=O)N2CCCC2)cc1 ), measured hERG current change (%, negative = inhibition) at 10uM is -23

The compound listed as COc1ccc(C)cc1NC(=O)COC(=O)C1CCN(C(=O)c2ccc(Cl)cc2)CC1 shows hERG current change (%, negative = inhibition) at 10uM equal to -79.1

Quick note, hERG current change (%, negative = inhibition) at 10uM for Cc1cccc(NC(=O)CN2C(=O)COc3ccc(Cl)cc32)c1C landed at 8.74

hERG current change (%, negative = inhibition) at 10uM in this record for COc1ccccc1NC(=O)N1CCC(C(=O)c2ccc(Cl)cc2)CC1 : -72.7

The reported value for CCN(CC)CCCOC(=O)c1ccc(OC)cc1O.Cl in terms of hERG current change (%, negative = inhibition) at 10uM is -40.9

For record CON(C)S(=O)(=O)c1cccc(C(=O)NC2CCSc3ccccc32)c1 (centres unmarked) the listed hERG current change (%, negative = inhibition) at 10uM is -9.64

Entry under test: O=C(Nc1ccc2nn(-c3ccccc3)nc2c1)c1ccco1 . Its hERG current change (%, negative = inhibition) at 10uM was 7.51

Record CCN(CC)S(=O)(=O)c1ccc(N2CCCC2)c(NC(=O)c2ccccc2OC)c1 . Reported hERG current change (%, negative = inhibition) at 10uM: -65.7

Data point: COc1ccc2nc(SC)c(C#N)cc2c1 ; hERG current change (%, negative = inhibition) at 10uM = 15.1

The measured hERG current change (%, negative = inhibition) at 10uM associated with CCCc1cc(N2CCCC(C(=O)Nc3ccc(OC)cc3OC)C2)n2ncnc2n1 (centres unmarked) reads -51.4

Kindly note the recorded hERG current change (%, negative = inhibition) at 10uM for O=C(OCc1ccccn1)C1CCN(C(=O)c2ccc(Cl)cc2)CC1 , which is -36

// hERG current change (%, negative = inhibition) at 10uM value for N#Cc1ccccc1COC(=O)CCC(=O)c1cccs1 : -4.58

Sample COc1ccccc1NC(=O)N1CCC(C(=O)c2ccc(F)cc2)CC1 ; hERG current change (%, negative = inhibition) at 10uM observed: 0.487

Summary for this compound, COc1ccc(C)cc1NC(=O)COC(=O)C1CC1 : hERG current change (%, negative = inhibition) at 10uM is 6.16

Record CCOc1cc(-c2nc3ccccc3s2)ccc1O , field hERG current change (%, negative = inhibition) at 10uM: 4.57

# hERG current change (%, negative = inhibition) at 10uM of COc1cc(C(=O)OCCC(C)C)cc(OC)c1O = -1.55
